Biological target: T1, Prolactin (human, UniProt P01236 29-227)
T1 construct: Prolactin, human, UniProt P01236; see the manufacturer's catalogue number; also called PRL; source: bought: PeproTech (source E. coli)
T1 sequence (looked up): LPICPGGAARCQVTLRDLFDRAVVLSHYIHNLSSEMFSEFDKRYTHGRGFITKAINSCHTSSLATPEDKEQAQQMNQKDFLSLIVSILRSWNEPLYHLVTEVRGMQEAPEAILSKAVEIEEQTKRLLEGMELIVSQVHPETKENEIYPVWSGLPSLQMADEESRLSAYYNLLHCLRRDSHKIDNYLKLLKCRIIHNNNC
Assay: SPR; cytokine immobilised on ProteOn GLH sensor chip by amine coupling (9,000-14,000 RU); S100P (wild type or mutant) as analyte, 62 nM-16 µM; 25 °C; 10 mM HEPES, 150 mM NaCl, 1 mM CaCl2, 0.05% TWEEN 20, pH 7.4; heterogeneous ligand model (two ligand populations), one-site model for IL-13; values averaged over analyte concentrations (n = 3-5)
Conditions: both partners purified

binder: Human S100P mutant Δ42–47 (lacks PGFLQS sequence in the 'hinge') (natural protein, S100P protein, human, recombinant, with residues 42-47 (PGFLQS) deleted; source: E. coli, prepared as previously described [28]) MTELETAMGMIIDVFSRYSGSEGSTQTLTKGELKVLMEKELGKDKDAVDKLLKDLDANGDAQVDFSEFIVFVAAITSACHKYFEKAGLK
Kd: > 100 µM

Measured values drawn from paper PMC9569990 for this set.
